Reported IC50 by item:
Assayed System: KRas G12A (Homo sapiens, UniProt P01116, G12A);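 further: binding to KRas measured by TR-FRET displacement after one hour at room temperature, IC50 from a four-parameter fit of percent-of-control values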
Sequence (P01116 1-169 isoform P01116-2 G12A): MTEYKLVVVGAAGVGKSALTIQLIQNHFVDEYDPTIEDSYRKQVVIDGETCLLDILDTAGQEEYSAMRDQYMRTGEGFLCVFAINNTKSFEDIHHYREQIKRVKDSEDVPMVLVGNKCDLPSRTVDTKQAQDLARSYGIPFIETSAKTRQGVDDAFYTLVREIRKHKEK
Protocol: biochemical

>>> df
                                   compound                            assayed_system  obs_value
0  CCc1c(F)ccc2cc(O)cc(-c3ncc4c(N5CCCCCC5)nc(OC[C@@]56CCCN5C[C@H](F)C6)nc4c3F)c12  KRas G12A (Homo sapiens, UniProt P01116, G12A)     ≤ 2 nM
1  Cc1ccc(O)cc1-c1ncc2c(N3CCCC(C)(O)C3)nc(OCC34CCCN3CCC4)nc2c1F (stereo not drawn)  KRas G12A (Homo sapiens, UniProt P01116, G12A)    2270 nM

Switching to the query record.
Q: I am curious: what IC50 value has been reported for CCc1c(F)ccc2cc(O)cc(-c3ncc4c(N5CCCC6(CC(=O)NC6=O)C5)nc(OC[C@@]56CCCN5C[C@H](F)C6)nc4c3F)c12 (stereo partly drawn) ?
A: ≤ 2 nM

* * *

Assayed System: KRas WT (Homo sapiens, UniProt P01116);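 further: binding to KRas read as TR-FRET displacement after a one-hour room-temperature incubation, IC50 derived from percent-of-control values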
Sequence (P01116 1-169 isoform P01116-2): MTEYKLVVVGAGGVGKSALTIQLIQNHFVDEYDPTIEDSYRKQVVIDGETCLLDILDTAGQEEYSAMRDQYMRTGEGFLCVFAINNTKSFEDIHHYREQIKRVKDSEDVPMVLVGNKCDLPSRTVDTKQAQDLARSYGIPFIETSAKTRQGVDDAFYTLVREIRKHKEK
pIC50: −log10 of the molar value.
Metric: pIC50

Below, 5 molecules whose answers are already recorded.
>>> df
                                   molecule  metric  obs_value
0  CCc1cccc2cccc(-c3ncc4c(N5CCOCC(C)(O)C5)nc(OCC56CCCN5CCC6)nc4c3F)c12 (stereo not shown) [Example 291]   pIC50       6.57
1  O=c1[nH][nH]cc1CNc1nc(OCC23CCCN2CCC3)nc2c(F)c(-c3cccc4cccc(F)c34)ncc12 [Example 230]   pIC50       4.55
2  N#CC1CCCN(c2nc(OCC34CCCN3CCC4)nc3c(F)c(-c4cccc5cccc(F)c45)ncc23)CC1 (stereo not shown) [Example 87]   pIC50       5.22
3  Fc1c(-c2cccc3cccc(F)c23)ncc2c(NCCc3c[nH]c4ncccc34)nc(OCC34CCCN3CCC4)nc12 [Example 212]   pIC50       5.08
4  Cc1cccc2cccc(-c3ncc4c(N5CCCC6(CNC(=O)N6)C5)nc(OCC56CCCN5CCC6)nc4c3F)c12 (stereo not shown) [Example 454]   pIC50       6.79

P. Fc1c(-c2cccc3cccc(F)c23)ncc2c(N3CCCC(c4cc[nH]n4)C3)nc(OCC34CCCN3CCC4)nc12 (stereo not shown) [Example 131]
Q. NC(=O)NC1CCN(c2nc(OCC34CCCN3CCC4)nc3c(F)c(-c4cccc5cccc(F)c45)ncc23)CC1 [Example 243]
R. CCc1cccc2cccc(-c3ncc4c(NCc5cn[nH]c5)nc(OCC56CCCN5CCC6)nc4c3F)c12 [Example 287]
Q: Hey, quick one: sort these by pIC50, low to high? Reply with the labels, ordered as the question asks.
A: P, Q, R
(P: 5.09, Q: 5.48, R: 6.08)

* * *

Assayed System: KRas G12V (Homo sapiens, UniProt P01116, G12V);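 further: KRas binding measured by TR-FRET displacement at room temperature, IC50 fitted from percent of control values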
Sequence (P01116 1-169 isoform P01116-2 G12V): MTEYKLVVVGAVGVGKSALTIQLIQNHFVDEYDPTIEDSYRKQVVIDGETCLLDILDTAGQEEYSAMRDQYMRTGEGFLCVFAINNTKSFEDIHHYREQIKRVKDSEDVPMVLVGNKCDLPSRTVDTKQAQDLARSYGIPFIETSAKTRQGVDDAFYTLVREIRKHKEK
Protocol: biochemical
Metric: IC50 (nM)

Below, 2 compounds whose answers are already recorded.
Compound	IC50 / nM
Cc1cc2sc(N)nc2c(-c2ncc3c(N4CCCC(C)(O)C4)nc(OCC45CCCN4CCC5)nc3c2F)c1C (stereo not drawn)	66300
Fc1c(-c2cccc3cccc(F)c23)ncc2c(Nc3cnn(-c4ccncc4)c3)nc(OCC34CCCN3CCC4)nc12	2940

a. N#CC1CCCN(c2nc(OCC34CCCN3CCC4)nc3c(F)c(-c4cccc5cccc(F)c45)ncc23)CC1 (stereo not drawn)
b. O=C1NC(=O)C2(CCCN(c3nc(OCC45CCCN4CCC5)nc4c(F)c(-c5cccc6cccc(F)c56)ncc34)C2)N1 (stereo not drawn)
Q: Lab note: record which item had the higher IC50, a or b . # answer = label of selected item
A: a

1. CCc1c(F)ccc2cc(O)cc(-c3ncc4c(NCCN5C(=O)CNC5=O)nc(OC[C@@]56CCCN5C[C@H](F)C6)nc4c3F)c12
2. OC1CCC2(CCCN(c3nc(OCC45CCCN4CCC5)nc4c(F)c(-c5cccc6cccc(F)c56)ncc34)C2)C1 (stereo not drawn)
3. Fc1c(-c2cccc3cccc(F)c23)ncc2c(NCc3cnn4cccnc34)nc(OCC34CCCN3CCC4)nc12
Q: Hey, quick one: sort these by IC50, low to high? Reply with the labels, ordered as the question asks.
A: 1, 3, 2
(1: 14 nM, 3: 12600 nM, 2: 70100 nM)

P. NC(=O)NC1CCCN(c2nc(OCC34CCCN3CCC4)nc3c(F)c(-c4cccc5cccc(F)c45)ncc23)C1 (stereo not drawn)
Q. NC(=O)C(O)CNc1nc(OCC23CCCN2CCC3)nc2c(F)c(-c3cccc4cccc(Cl)c34)ncc12 (stereo not drawn)
R. N#Cc1cccc2cccc(-c3ncc4c(N5CCCC6(C5)NC(=O)NC6=O)nc(OCC56CCCN5CCC6)nc4c3F)c12 (stereo not drawn)
Q: Hey, quick one: sort these by IC50, low to high? Reply with the labels, ordered as the question asks.
A: Q, R, P
(Q: 1460 nM, R: 3660 nM, P: 13600 nM)

I. O=C1CC2(CCCN(c3nc(OCC45CCCN4CCC5)nc4c(F)c(-c5cccc6cccc(F)c56)ncc34)C2)C(=O)N1 (stereo not drawn)
II. CC1(O)CCCCN(c2nc(OCC34CCCN3CCC4)nc3c(F)c(-c4cccc5cccc(F)c45)ncc23)C1 (stereo not drawn)
Q: Min IC50? I | II # answer = label of selected item
A: I
